tested.on: DNA gyrase (Escherichia coli) (UniProt P0AES6+P0AES4)
assay.summary: Inhibition of Escherichia coli DNA gyrase super-coiling activity using relaxed pNO1 DNA as substrate assessed as enzyme residual activity at 1 uM incubated for 30 mins by fluorescence assay relative to control
Assay type: protein-complex assay
Here the recorded Activity is given for each entry.
Answer format: numeric, % implied, no suffix.

**Q:** For the molecule "O=C(O)C1=Cc2ccccc2N2C[N+]3(CCN(c4cc5c(cc4F)c(=O)c(C(=O)O)cn5C4CC4)CC3)N=C12.[Cl-]" , what Activity is on record?
**A:** 97

More entries:
**Q:** # Activity lookup, item "CCn1cc(C(=O)O)c(=O)c2cc(F)c(N3CC[N+]4(CC3)CN3C(=N4)C(C(=O)O)=Cc4ccccc43)nc21.[Cl-]"
**A:** 100

**Q:** Item "O=C(O)c1cn(C2CC2)c2cc(N3CCNCC3)c(F)cc2c1=O" has what recorded Activity?
**A:** 7

**Q:** Entry CCn1cc(C(=O)O)c(=O)c2cc(F)c(N3CC[N+]4(CN5C(=N4)C(C(=O)O)=Cc4ccccc45)C(C)C3)c(F)c21.[Cl-] (centres undefined) has what Activity?
**A:** 97

* * *

System: Streptococcus pneumoniae
assay.summary: Antibacterial activity against Streptococcus pneumoniae cultured in MH medium assessed as reduction in bacterial growth incubated for 48 hrs by microbroth dilution method
Format: functional
metric: MIC (µg/mL)
Please give a number only; it is taken to be in µg/mL.

**Q:** Name the recorded MIC for COc1c(N2CC[N+]3(CN4C(=N3)C(C(=O)O)=Cc3ccccc34)C(C)C2)c(F)cc2c(=O)c(C(=O)O)cn(C3CC3)c12.[Cl-] (stereo unspecified) .
**A:** 128

**Q:** Looking for the measured MIC of CCn1cc(C(=O)O)c(=O)c2cc(F)c(N3CCNC(C)C3)c(F)c21 (stereo unspecified) [LOMEFLOXACIN] , can you help?
**A:** 16

**Q:** Consider the compound "CCn1cc(C(=O)O)c(=O)c2cc(F)c(N3CC[N+]4(CC3)CN3C(=N4)C(C(=O)O)=Cc4ccccc43)nc21.[Cl-]" and give its measured MIC.
**A:** 256

**Q:** // query MIC value for entry C[C@@H]1CN(c2c(F)c(N)c3c(=O)c(C(=O)O)cn(C4CC4)c3c2F)C[C@H](C)N1 [SPARFLOXACIN]
**A:** 0.25

**Q:** Recorded MIC for CCn1cc(C(=O)O)c(=O)c2cc(F)c(N3CCNCC3)nc21 [ENOXACIN] , please?
**A:** 32

* * *

Tested on: Staphylococcus aureus
assay.summary: Bactericidal activity against methicillin resistant Staphylococcus aureus N315 cultured in MH medium assessed as reduction in bacterial survival incubated for 48 hrs by microbroth dilution method
Type: functional
assay.conditions: N315, 48 h
metric: MBC
# do not omit the unit; it follows the number

Check out these entries, answers already filled in.
**Q:** I would be grateful if you could share the reported MBC for "CCn1cc(C(=O)O)c(=O)c2cc(F)c(N3CC[N+]4(CC3)CN3C(C)=CC(C)=C(C(=O)O)C3=N4)nc21.[Cl-]" .
**A:** 128 µg/mL

**Q:** Using the record for "CCn1cc(C(=O)O)c(=O)c2cc(F)c(N3CC[N+]4(CC3)CN3C(=N4)C(C(=O)O)=Cc4ccccc43)cc21.[Cl-]" , report its MBC.
**A:** 64 µg/mL

Please find the next molecule below.
**Q:** Item "CCn1cc(C(=O)O)c(=O)c2cc(F)c(N3CCNCC3)cc21" has what recorded MBC?
**A:** 2 µg/mL

* * *

Catalogue of compounds with associated log K
assay.summary: Lipophilicity, log k of the compound at 100 ug/ml by micellar electrokinetic chromatography
Type: physicochemical
The answer should be written as a number, with no unit following it.

Consider the worked cases shown below.
**Q:** Entry under review: "CCn1cc(C(=O)O)c(=O)c2cc(F)c(N3CC[N+]4(CC3)CN3C(C)=CC(C)=C(C(=O)O)C3=N4)cc21.[Cl-]" . Reported log K?
**A:** -0.2721

**Q:** Query (compound): "CC1=CC(C)=C(C(=O)O)C2=N[N+]3(CCN(c4cc5c(cc4F)c(=O)c(C(=O)O)cn5C4CC4)CC3)CN12.[Cl-]" ; field requested: log K
**A:** -0.3214

Continue with the compound presented below.
**Q:** # lookup: log K of COc1c(N2CCNC(C)C2)c(F)cc2c(=O)c(C(=O)O)cn(C3CC3)c12 (stereo not drawn) [GATIFLOXACIN]
**A:** 0.101

* * *

System: Streptococcus pneumoniae
assay.summary: Bactericidal activity against Streptococcus pneumoniae cultured in MH medium assessed as reduction in bacterial survival incubated for 48 hrs by microbroth dilution method
Format: functional
Measured MBC by item

Worked examples follow.
**Q:** What MBC appears in the records for this compound with Streptococcus pneumoniae? "CCn1cc(C(=O)O)c(=O)c2cc(F)c(N3CCNCC3)nc21"
**A:** > 512 µg/mL

**Q:** Short answer please: MBC, Streptococcus pneumoniae, entry "CCn1cc(C(=O)O)c(=O)c2cc(F)c(N3CCNCC3)cc21"
**A:** > 512 µg/mL

**Q:** State its MBC on Streptococcus pneumoniae: CCn1cc(C(=O)O)c(=O)c2cc(F)c(N3CCNC(C)C3)c(F)c21 (centres undefined)
**A:** > 512 µg/mL

// moving on: another record for MBC
**Q:** Please tell me: MBC of "O=C(O)c1cn(C2CC2)c2cc(N3CCNCC3)c(F)cc2c1=O" , system Streptococcus pneumoniae?
**A:** > 512 µg/mL

* * *

System: Bacillus spizizenii
assay.summary: Bactericidal activity against Bacillus subtilis ATCC 6633 cultured in MH medium assessed as reduction in bacterial survival incubated for 48 hrs by microbroth dilution method
Format: functional
assay.conditions: ATCC 6633, 48 h
metric: MBC (µg/mL)
# output: bare number, implied unit µg/mL

Example molecules with recorded MBC:
**Q:** Fill blank: measured MBC of the molecule O=C(O)c1cn(C2CC2)c2cc(N3CCNCC3)c(F)cc2c1=O [CIPROFLOXACIN] is ____.
**A:** 0.063

**Q:** Name the recorded MBC for COc1c(N2CCNC(C)C2)c(F)cc2c(=O)c(C(=O)O)cn(C3CC3)c12 (stereo not drawn) [GATIFLOXACIN] .
**A:** 0.063

***
**Q:** # input molecule: CCn1cc(C(=O)O)c(=O)c2cc(F)c(N3CC[N+]4(CN5C(C)=CC(C)=C(C(=O)O)C5=N4)C(C)C3)c(F)c21.[Cl-] (stereo not drawn) ; wanted: its MBC
**A:** 8

* * *

System: Streptococcus pneumoniae
assay.summary: Antibacterial activity against Streptococcus pneumoniae cultured in MH medium assessed as reduction in bacterial growth incubated for 48 hrs by microbroth dilution method
Type: functional
metric: MIC

Worked cases, MIC given:
**Q:** MIC for "CCn1cc(C(=O)O)c(=O)c2cnc(N3CC[N+]4(CC3)CN3C(C)=CC(C)=C(C(=O)O)C3=N4)nc21.[Cl-]" ?
**A:** > 512 mg/L

**Q:** // MIC lookup, key: "CCn1cc(C(=O)O)c(=O)c2cc(F)c(N3CC[N+]4(CC3)CN3C(=N4)C(C(=O)O)=Cc4ccccc43)cc21.[Cl-]"
**A:** > 512 mg/L

**Q:** Can you share its MIC? I mean this compound: CCn1cc(C(=O)O)c(=O)c2cc(F)c(N3CC[N+]4(CN5C(C)=CC(C)=C(C(=O)O)C5=N4)C(C)C3)c(F)c21.[Cl-] (stereo unspecified)
**A:** > 512 mg/L

**Q:** Quick one: MIC of "CCn1cc(C(=O)O)c(=O)c2cnc(N3CC[N+]4(CC3)CN3C(=N4)C(C(=O)O)=Cc4ccccc43)nc21.[Cl-]" ?
**A:** > 512 mg/L

**Q:** Entry under review: "CCn1cc(C(=O)O)c(=O)c2cc(F)c(N3CC[N+]4(CC3)CN3C(C)=CC(C)=C(C(=O)O)C3=N4)cc21.[Cl-]" . Reported MIC?
**A:** > 512 mg/L

Proceed to the following item.
**Q:** Look at this compound and give its reported MIC. C[C@@H]1CN(c2c(F)c(N)c3c(=O)c(C(=O)O)cn(C4CC4)c3c2F)C[C@H](C)[N+]12CN1C(=N2)C(C(=O)O)=Cc2ccccc21.[Cl-] (stereo partly specified)
**A:** > 512 mg/L
